The origin of these recorded values is patent US11548888B2.

biological target: KRas G12C (Homo sapiens, UniProt P01116, G12C); construct: NCI-H358 cells (ATCC CRL-5807) express KRas G12C; assay: Inhibition of KRas G12C-dependent cell growth: Phospho-ERK in NCI-H358 cells; type: cell-based; settings: NCI-H358 cells expressing KRas G12C; Phospho-ERK (Thr202/Tyr204) normalized to GAPDH; 3 hours compound; 4 parameter fit
Sequence (P01116 1-188 isoform P01116-2 G12C): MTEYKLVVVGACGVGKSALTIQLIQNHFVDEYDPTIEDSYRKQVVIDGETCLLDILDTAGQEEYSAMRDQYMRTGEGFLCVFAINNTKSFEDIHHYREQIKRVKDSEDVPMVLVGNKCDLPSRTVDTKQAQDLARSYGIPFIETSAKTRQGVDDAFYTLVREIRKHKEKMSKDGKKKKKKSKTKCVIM
attributeMeasured: IC50 (nM)

# compound, IC50, nM
measured = [
    ("C=CC(=O)N1CC[C@@H]2[C@H]1CN2c1nc(N2CC(N(C)C)C2)nc2c(F)c(-c3cccc4ccc(F)c(Cl)c34)ncc12 [Example 273]", 16),
]

P: C=CC(=O)N1C[C@H](C)N(c2ncnc3c(F)c(-c4cccc5ccc(F)c(Cl)c45)ncc23)[C@@H](C)C1 [Example 148]
Q: C=CC(=O)N1CCN(c2nc(OC[C@@H]3CCCN3C)nc3c(F)c(-c4cncc5cccc(Cl)c45)ncc23)[C@@H](C)C1 [Example 96]
In: For the pair P and Q , which member has the lower IC50 number? The response must carry the label of the picked entry.
Out: Q
(Q: 200 nM, P: 6280 nM)

---

target: KRas G12C (Homo sapiens, UniProt P01116, G12C); construct: NCI-H358 cells (ATCC CRL-5807) express KRas G12C; experiment: Inhibition of KRas G12C-dependent cell growth: Phospho-ERK in NCI-H358 cells; settings: NCI-H358 cells expressing KRas G12C; Phospho-ERK (Thr202/Tyr204) normalized to GAPDH; 3 hours compound; 4 parameter fit
pIC50: −log10 of the molar value.
attributeMeasured: pIC50

# compound, targetOrTestSystem, attributeMeasured, observedResult
data = [
    ("C#Cc1cccc2cccc(-c3ncc4c(N5CC[C@@H]6[C@H]5CN6C(=O)C=C)ncnc4c3F)c12", "KRas G12C (Homo sapiens, UniProt P01116, G12C)", "pIC50", 5.39),
    ("C=C(F)C(=O)N1CCN(c2nc(OCC34CCCN3CCC4)nc3c(F)c(-c4cccc(F)c4C(F)(F)F)ncc23)C[C@@H]1CC#N", "KRas G12C (Homo sapiens, UniProt P01116, G12C)", "pIC50", 7.37),
]

a: C=C(F)C(=O)N1CCN(c2nc(OCC3COC3)nc3c(F)c(-c4cccc5ccc(F)c(Cl)c45)ncc23)C[C@@H]1CC#N
b: C=CC(=O)N1CC[C@@H]2[C@H]1CN2c1ncnc2c(F)c(-c3cncc4cccc(Cl)c34)ncc12
c: C=C(F)C(=O)N1CCN(c2nc(OC[C@@H]3CCCN3C)nc3c(F)c(-c4cncc5cccc(Cl)c45)ncc23)C[C@@H]1CC#N
In: Rank items: key pIC50, increasing. Reply with the labels, ordered as the question asks.
Out: b, a, c
(b: 6.10, a: 6.59, c: 7.85)

---

biological target: KRas G12C (Homo sapiens, UniProt P01116, G12C); construct: NCI-H358 cells (ATCC CRL-5807) express KRas G12C; test: Inhibition of KRas G12C-dependent cell growth: Phospho-ERK in NCI-H358 cells; details: NCI-H358 cells expressing KRas G12C; Phospho-ERK (Thr202/Tyr204) normalized to GAPDH; 3 hours compound; 4 parameter fit
attributeMeasured: IC50 (nM)

# molecule, targetOrTestSystem, measurementUnits, IC50
measured = [
    ("C=CC(=O)N1CC[C@@H]2[C@H]1[C@@H](C)N2c1ncnc2c(F)c(-c3cccc4ccc(F)c(Cl)c34)ncc12", "KRas G12C (Homo sapiens, UniProt P01116, G12C)", "nM", 408),
    ("C#Cc1cccc2cncc(-c3ncc4c(N5C[C@@H]6[C@H]5CCN6C(=O)C=C)ncnc4c3F)c12", "KRas G12C (Homo sapiens, UniProt P01116, G12C)", "nM", 418),
    ("C=CC(=O)N1CC2CN(c3nc(OC[C@@H]4CCCN4C)nc4c(F)c(-c5cncc6cccc(Cl)c56)ncc34)CC2C1 (stereo partly drawn)", "KRas G12C (Homo sapiens, UniProt P01116, G12C)", "nM", 10000),
    ("C=CC(=O)N1CCN(c2nc(OC[C@@H]3CCCN3C)nc3c(F)c(-c4c(C)ccc5[nH]ncc45)ncc23)CC1", "KRas G12C (Homo sapiens, UniProt P01116, G12C)", "nM", 2520),
]

1: CN1CCC[C@H]1COc1nc(N2CCN(C(=O)/C=C/CF)[C@@H](CC#N)C2)c2cnc(-c3cccc4cccc(Cl)c34)c(F)c2n1
2: C=CC(=O)N1CCN(c2nc(C3CC3)nc3c(F)c(-c4cccc5ccc(F)c(Cl)c45)ncc23)C[C@@H]1CC#N
In: Sorting ascending by IC50, which comes first: 1 or 2 ? Field: selected label. Fill in the label of the entry you choose.
Out: 1
